target: E3 ubiquitin-protein ligase XIAP (Homo sapiens) (UniProt P98170); experiment: XIAP binders, primary screen, biophysical, small-molecule microarray, fluorescence 635 nm (AID 1181); conditions: small-molecule microarray binding, higher = more signal;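 also: score merges 667 nm emission and signal to noise over triplicate slides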
Sequence (P98170 whole entry, looked up): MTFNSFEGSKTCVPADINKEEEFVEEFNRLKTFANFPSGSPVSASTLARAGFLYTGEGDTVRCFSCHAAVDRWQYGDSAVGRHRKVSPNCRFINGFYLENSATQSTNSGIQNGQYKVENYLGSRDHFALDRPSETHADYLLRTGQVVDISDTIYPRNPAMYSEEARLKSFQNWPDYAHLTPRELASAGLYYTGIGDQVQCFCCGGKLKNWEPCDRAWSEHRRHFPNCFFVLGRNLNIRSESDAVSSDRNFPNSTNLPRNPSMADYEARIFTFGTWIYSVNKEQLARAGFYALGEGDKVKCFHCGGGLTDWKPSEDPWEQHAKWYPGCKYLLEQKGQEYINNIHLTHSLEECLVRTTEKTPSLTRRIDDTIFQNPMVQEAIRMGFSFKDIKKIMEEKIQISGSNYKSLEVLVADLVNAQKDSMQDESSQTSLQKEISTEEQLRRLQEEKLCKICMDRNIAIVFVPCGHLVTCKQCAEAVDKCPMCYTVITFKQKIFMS
Binned composite z-score; ranges: lo (below -0.04), mid (-0.04 to below 0.2), hi (0.2 or more)

COMPOUND	LABEL CLASS
CN(C)C(=O)[C@]1(Cc2ccccc2CN=[N+]=[N-])N=C(c2ccc(OCCCO)cc2)O[C@@H]1c1ccccc1N=[N+]=[N-]	mid
COCCOC(=O)N1C(=O)[C@@]2(c3cc(C#CC4=CCCCC4)ccc31)[C@H](c1ccc(OCCO)cc1)N1[C@H](c3ccccc3)[C@H](c3ccccc3)OC(=O)[C@H]1[C@@H]2C(=O)N1CCCCCCC1	hi
N#Cc1ccc(C(O)C2C=CC3C(=O)N(c4ccccc4)C(=O)C3N2Nc2ccc([N+](=O)[O-])cc2)cc1 (centres undefined)	lo

Categorize the following entry: N#Cc1ccc(C(O)C2C=CC3C(=O)NC(=O)C3N2Nc2ccccn2)cc1 (centres undefined)
lo

Let us now turn to COC(=O)c1c(CC[C@@H](CO)NC(=O)N[C@@H](Cc2ccccc2)Cn2cc(-c3cncn3C)nn2)oc(C(C)=O)c1C(=O)OC
mid

Try CN(C)CCCC[C@@H]1NC(=O)[C@H]2C[C@@H](C(=O)O)[C@@H](c3cccc(OCCO)c3)N2C1=O next.
hi

Moving on to the next compound: CO[C@H]1O[C@H](CO)[C@@H](OC(=O)Nc2ccc3c(c2)OCO3)[C@@H]2OC(=O)[C@@H](Cc3ccccc3)C/C=C/C[C@H](Cc3ccccc3)C(=O)O[C@@H]12
hi

And for C=C(/C(=C/C[C@H](OC(=O)c1ccncc1)c1ccccc1OCCO)c1cc(C(=O)OC)ccc1OC)C(C)C ?
lo

Then COc1ccc(C(O)C2C=CC3C(=O)N(C)C(=O)C3N2Nc2ccc([N+](=O)[O-])cc2[N+](=O)[O-])cc1OCc1ccccc1 (centres undefined) ?
mid

Repeat with CCN(CC)c1ccc(N2CC=CC34O[C@@H]5C=CCOC(=O)[C@@H]5[C@H]3C(=O)N(CCCO)[C@@H]4C2=O)cc1 (some centres undefined)
mid

---

biological target: Pro-neuregulin-1, membrane-bound isoform (Homo sapiens); experiment: NRG1 binders on small-molecule microarrays, primary screen, psychiatric disease protein project, biochemical, small-molecule microarray, fluorescence 635/667 (AID 1075); conditions: NRG1 binding, 635 nm fluorescence, higher = more signal;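 also: score combines 667 nm spot fluorescence with signal to noise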
Class Yes: composite z-score at least 0.7. Class No: composite z-score below 0.7.

Here's what some known entries look like.
MOLECULE	LABEL CLASS
COc1ccc([Si](C)(C)[C@@H]2[C@@H](CCO)O[C@]3(C(=O)N(Cc4ccccc4)c4ccc(N5C(=O)c6ccccc6Oc6ccccc65)cc43)[C@H]2C)cc1	Yes
O=C1N(CCS(=O)(=O)c2ccccc2)c2ccccc2[C@@H]2OC(c3ccc(OCCCO)cc3)=N[C@]12CCS(=O)(=O)c1ccccc1	No
COc1cccc(C[C@H]2C[C@@H](CO[Si](C(C)C)(C(C)C)C(C)C)N3C(=O)[C@@]4(C(C)=O)O[C@@]23[C@@H]2C(=O)N(C)C(=O)[C@@H]24)c1	Yes

Answer whether composite z-score of C#CCN=C(N)N is greater than or equal to 0.7.
Yes

Try COc1ccc(NN2C(C(O)c3ccc(OC)cc3)C=CC3C(=O)N(C4CCCCC4)C(=O)C32)cc1 (centres undefined) next.
Yes

Likewise for CN(C)CCCNC(=O)[C@@H]1c2ccccc2C(=O)N(C2Cc3ccccc3C2)[C@H]1c1ccc(CO)cc1 ?
No

---

molecular target: Carbonic anhydrase 2 (Homo sapiens) (UniProt P00918); assay: CAII small-molecule binders, profiling panel, biochemical, small-molecule microarray, Alexa647-labelled CAII (AID 1122); details: CAII-A647 binding fluorescence, higher = more signal
# key: entry, value: composite z-score
The answer should be written as a number, with no unit following it.

COMPOUND	TESTED ON	composite z-score
C=CCC(OC(C)=O)[C@@H]1[C@@H](N(Cc2ccc(-c3cccc(C(F)(F)F)c3)o2)C(=O)Cc2ccc(F)cc2)c2cc(OCCCO)ccc2N1C(=O)c1ccc2ccccc2c1 (stereo partly drawn)	Carbonic anhydrase 2 (Homo sapiens) (UniProt P00918)	-0.351
Cc1ccc(S[C@]2(C(=O)NCC(F)(F)F)CC(=O)N(C3CCCCC3)[C@@H]2c2ccc(CO)cc2)cc1	Carbonic anhydrase 2 (Homo sapiens) (UniProt P00918)	0.702
COC(=O)[C@@]1(Cc2ccc(OC)cc2)[C@@H]2[C@@H](CC(=O)[C@H]2CC(=O)C(=O)N2CCCC2)CN1C(=O)c1ccccc1	Carbonic anhydrase 2 (Homo sapiens) (UniProt P00918)	0.856
COc1ccc([Si](C)(C)[C@H]2[C@H](CCn3cc([C@H](O)c4ccccc4)nn3)O[C@@]3(C(=O)N(C)c4c(Br)cc(C)cc43)[C@@H]2C)cc1	Carbonic anhydrase 2 (Homo sapiens) (UniProt P00918)	-0.149
C#CCN=C(N)N	Carbonic anhydrase 2 (Homo sapiens) (UniProt P00918)	0.41

GET /values?readout=composite z-score&item= N#Cc1ccc(C(O)C2C=CC3C(=O)NC(=O)C3N2Nc2ccccn2)cc1 (stereo not drawn)
0.854

Field entry: COc1ccc(CCNC(=O)[C@@]2(C)c3ccccc3C(=O)N(Cc3cc(C(F)(F)F)cc(C(F)(F)F)c3)[C@H]2c2ccc(CO)cc2)cc1
0.643

Here is the next compound: COCCOC(=O)N1C(=O)[C@@]2(c3cc(C#CCC(C(=O)OC)C(=O)OC)ccc31)[C@H](C(=O)N1CCCCCCC1)[C@H]1C(=O)O[C@H](c3ccccc3)[C@H](c3ccccc3)N1[C@@H]2c1ccccc1OCCO
0.761

// query: C=C(COC)/C(=C/C[C@H](OC(=O)c1ccncc1)c1cccc(OCCO)c1)c1cnc2ccccc2c1
0.855

Try the compound [N-]=[N+]=NCc1ccccc1C[C@@]1(C(=O)O)N=C(c2ccc(OCCCO)cc2)O[C@@H]1c1ccccc1CN=[N+]=[N-]
0.573

What do you get for COC(=O)c1ccc([C@H](NC(=O)c2ccccc2)[C@]2(C)C[C@H]2C2CCCCC2)cc1 ?
0.158

Item: CC(C)C(=C=CC[C@@H](O)c1cccc(OCCO)c1)CCO
0.705

Lookup Cc1c(NC(=O)/C(C#N)=C/c2ccc(Cl)cc2)c(=O)n(-c2ccccc2)n1C
0.229

Item: O=C1C2C=CC(C(O)c3cccc(O)c3)N(Nc3ccccc3F)C2C(=O)N1c1ccccc1 (stereo not drawn)
0.756

Now this one: COCC(=C=CC[C@@H](O)c1cccc(OCCO)c1)C[C@@H](O)COCc1ccccc1
0.552

Next up: CCOC(=O)C[C@H]1[C@H](OC(=O)c2cc3ccccc3oc2=O)[C@@H](NC(=O)C2CCCCC2)c2cc(OCCCO)ccc2N1C(=O)Cc1ccc(OC)cc1
0.51

And the next one, CCCCC(O)C1C=CC2C(=O)NC(=O)C2N1Nc1ccc(Cl)cc1Cl (stereo not drawn) ?
0.253

Then CCOC(=O)C1=CC[C@@H](c2ccc(F)cc2)N(S(=O)(=O)c2ccc(C)cc2)[C@H]1c1ccc([N+](=O)[O-])cc1 ?
0.223

Proceed to CC(C)CNC(=O)[C@@H]1c2ccccc2C(=O)N(C(C)C)[C@H]1c1ccc(CO)cc1
0.757

Further, for COc1ccc(NN2C(C(O)c3ccc(OC)cc3)C=CC3C(=O)N(C4CCCCC4)C(=O)C32)cc1 (stereo not drawn) ?
0.405

Another: COC(=O)[C@@]1(Cc2ccc(F)cc2)[C@H]2c3cc(C(=O)N(C)C)n(CCn4cc([N+](=O)[O-])nc4C)c3C[C@H]2CN1C(=O)c1ccccc1
0.477

Repeat with CCN(CC)c1ccc(N2CC=CC34O[C@@H]5C=CCOC(=O)[C@@H]5[C@H]3C(=O)N(CCCO)[C@@H]4C2=O)cc1 (stereo partly drawn)
0.862

What do you get for CCOC(=O)C1=CCC(c2cc3ccccc3[nH]2)N(S(=O)(=O)c2ccccc2[N+](=O)[O-])C1 (stereo not drawn) ?
0.674

Follow-up item: CC(C)CNC(=O)[C@@H]1c2ccccc2C(=O)N(Cc2ccccc2)[C@H]1c1ccc(CO)cc1
0.83

Another: CC(C)CNC(=O)[C@@H]1c2ccccc2C(=O)N(C2Cc3ccccc3C2)[C@H]1c1ccc(CO)cc1
0.687

And for COCCOC(=O)N1C(=O)[C@@]2(c3cc(C#CCC(C(=O)OC)C(=O)OC)ccc31)[C@H](c1ccc(OCCO)cc1)N1[C@H](c3ccccc3)[C@H](c3ccccc3)OC(=O)[C@H]1[C@@H]2C(=O)N1CCCCCCC1 ?
0.604

Consider next the compound CC(C)C[C@@H]1NC(=O)C([C@@H](C)OCc2ccccc2)NC(=O)[C@@]23C(=O)N[C@@H](Cc4ccccc4)C2[C@H](C)[C@@]2(C)O[C@H]2C3/C=C/CC/C=C/CNC1=O (stereo partly drawn) in the same way.
0.469

Now consider CO[C@H]1O[C@H](CO)[C@@H](OC(=O)Nc2ccc(C(F)(F)F)cc2)[C@H](OC(=O)Nc2ccccc2-c2ccccc2)[C@H]1OC(=O)Nc1ccccc1-c1ccccc1 .
0.693
